EXPERIMENTAL PROTOCOL: an = ratio of the nth substance listed
MEASUREMENT SETUP: 293 K; 100 kPa; Liquid; Frequency=5 MHz; Single path-length method; a2 = 2
MEASUREMENT KIND: speed of sound (m/s)

COMPOUND | MEASUREMENT KIND | MEASURED RESULT
C[N+](C)(C)CCO.[Cl-] [choline chloride] + OCC(O)CO | speed of sound | 1987
C[N+](C)(C)CCO.[Cl-] [choline chloride] + OCCO | speed of sound | 1896
CCCCCCCC[N+](CCCCCCCC)(CCCCCCCC)CCCCCCCC.[Br-] [tetraoctylammonium bromide] + CCCCCCCCCC(=O)O | speed of sound | 1416
CCCCCCCC[N+](C)(CCCCCCCC)CCCCCCCC.[Br-] [methyltrioctylammonium bromide] + CCCCCCCCCC(=O)O | speed of sound | 1406
